src = patent US20240343803A1

Molecular target: T1, human TIGIT ECD-hFc (fusion protein of extracellular domain of human TIGIT and human IgG1 Fc fragment) (human)
T1 construct: entry includes the signal peptide, limits not readable here
T1 sequence (chain, as listed by the source limits assumed): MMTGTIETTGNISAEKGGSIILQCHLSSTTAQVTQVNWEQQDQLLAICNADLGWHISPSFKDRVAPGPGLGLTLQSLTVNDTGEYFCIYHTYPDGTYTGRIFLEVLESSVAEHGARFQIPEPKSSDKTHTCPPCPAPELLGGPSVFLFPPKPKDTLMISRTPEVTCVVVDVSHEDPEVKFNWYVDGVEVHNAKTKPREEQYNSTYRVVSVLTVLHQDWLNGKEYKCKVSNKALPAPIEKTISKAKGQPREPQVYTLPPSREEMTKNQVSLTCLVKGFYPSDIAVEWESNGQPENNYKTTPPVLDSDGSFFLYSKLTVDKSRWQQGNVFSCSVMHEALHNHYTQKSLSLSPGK
Test: ELISA
Documented EC50 across a set of binders
Report the value in nM with no unit label.

| Binder | EC50 (nM) |
| --- | --- |
| TIGIT-F5-070 (antibody, V domains shown, mouse hybridoma antibody; variable domains as printed for TIGIT-CHI-070; tie rests on the number 070 only; also called mouse antibody TIGIT-070) VH: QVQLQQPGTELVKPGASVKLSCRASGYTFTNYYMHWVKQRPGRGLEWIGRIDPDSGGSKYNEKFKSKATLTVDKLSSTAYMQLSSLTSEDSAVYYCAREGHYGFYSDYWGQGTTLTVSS VL: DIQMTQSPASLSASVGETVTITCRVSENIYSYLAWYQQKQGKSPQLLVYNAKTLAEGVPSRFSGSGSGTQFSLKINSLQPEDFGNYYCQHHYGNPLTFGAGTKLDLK | 0.0039 |
| TIGIT-F2-006 (antibody, V domains shown, mouse hybridoma antibody; variable domains as printed for TIGIT-CHI-006; tie rests on the number 006 only; also called mouse antibody TIGIT-006) VH: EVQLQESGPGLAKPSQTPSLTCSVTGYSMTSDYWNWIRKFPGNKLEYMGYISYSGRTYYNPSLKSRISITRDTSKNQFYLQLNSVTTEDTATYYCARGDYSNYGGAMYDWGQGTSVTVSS VL: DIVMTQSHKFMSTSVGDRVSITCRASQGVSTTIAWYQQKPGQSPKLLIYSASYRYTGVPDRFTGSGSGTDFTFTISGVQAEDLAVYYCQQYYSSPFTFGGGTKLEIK | 0.0208 |
| TIGIT-F2-005 (antibody, V domains shown, mouse hybridoma antibody; variable domains as printed for TIGIT-CHI-005; tie rests on the number 005 only; also called mouse antibody TIGIT-005) VH: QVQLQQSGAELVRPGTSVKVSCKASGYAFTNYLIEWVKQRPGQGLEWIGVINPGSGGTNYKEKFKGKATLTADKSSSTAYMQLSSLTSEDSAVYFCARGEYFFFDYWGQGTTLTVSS VL: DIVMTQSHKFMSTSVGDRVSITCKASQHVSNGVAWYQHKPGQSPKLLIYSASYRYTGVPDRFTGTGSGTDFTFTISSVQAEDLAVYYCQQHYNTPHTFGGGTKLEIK | 0.015 |

Let us move to another entry and its EC50.
Problem: Would you mind telling me what EC50 value was observed for TIGIT-F2-002 (antibody, V domains shown, mouse hybridoma antibody; variable domains are those printed for the chimeric TIGIT-CHI-002 built from the mouse antibody; tie rests on the number 002 only; also called mouse antibody TIGIT-002) VH: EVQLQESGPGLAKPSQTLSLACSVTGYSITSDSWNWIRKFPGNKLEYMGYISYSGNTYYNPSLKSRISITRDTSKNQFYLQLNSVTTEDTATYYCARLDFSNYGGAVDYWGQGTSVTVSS VL: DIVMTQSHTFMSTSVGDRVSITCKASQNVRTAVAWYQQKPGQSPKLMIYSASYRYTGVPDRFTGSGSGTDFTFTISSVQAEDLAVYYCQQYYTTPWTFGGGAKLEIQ ?
Solution: 0.0171
